All values here come from PubChem BioAssay (NCI).

For each entry below, report its growth value.
test system: HOP-92 NSCLC; experiment: NCI-60 one-dose screen, 48 h (100 = growth as untreated, 0 = no growth, -100 = all killed); details: 10 µM unless noted
Compounds without any hit were thinned out: in the full panel of roughly 83,000, 20% have a hit.
Give your result in % as a bare value.

*Q* Would you mind telling me what growth value was observed for CCOC(=O)C1=CCC(n2cc(F)c(=O)[nH]c2=O)O1 (stereo not drawn) ?
*A* 107

*Q* Cool, now COc1cc(/C=C/C(=O)c2ccc(-n3cc(CN4CCN(c5cc6c(cc5F)c(=O)c(C(=O)O)cn6C5CC5)CC4)nn3)cc2)cc(OC)c1OC
*A* 88

*Q* Another compound: CCOC(=O)/C(=C/c1ccc([N+](=O)[O-])cc1)C(=O)c1ccccc1
*A* 32.4

*Q* Also CN1/C(=C/C=C/c2n(Cc3ccc4ccccc4c3)c(Cl)c(Cl)[n+]2Cc2ccc3ccccc3c2)Oc2ccccc21 , if possible.
*A* -81

*Q* Next compound up: O=C(CSc1nnc(-c2ccc(Cl)c(Cl)c2)n1-c1ccccc1)Nc1ccc(C(=O)/C=C/c2ccc(Cl)cc2)cc1
*A* 80.7

*Q* Let us now turn to C#Cc1cccc(Nc2ncnc3ccc(-c4cnc(Cl)c(NS(C)(=O)=O)c4)cc23)c1
*A* -17.1

*Q* Then CC1=C([Se]CC(OC(=O)[C@@H](CO)NC(=O)OC(C)(C)C)C(=O)NCCCCCC(=O)OCc2ccccc2)C(=O)c2ccccc2C1=O (stereo partly drawn) ?
*A* -75.3

*Q* Further, for Cc1ccccc1NC(=O)Cn1cc(CN2CCN(c3ccnc4cc(Cl)ccc34)CC2)nn1 ?
*A* 68.5
